Test system: A. thaliana (Col-0) plant
Type: in vivo, Arabidopsis thaliana
Settings: Table 2, 20 μM
readout name: Percent decrease 1° root (%)
Numbers only, in %.

Example entries begin here.
Field request: Percent decrease 1° root | item: CCCCCCCCC(=O)N1CCOCCOCCN(C(=O)CCCCCCCC)CCOCCOCC1 [C9 lariat ether amide]
78.2

Another compound to check: CCCCCCN1CCOCCOCCN(CCCCCC)CCOCCOCC1
5.9

Another compound to check: CCCCCCCCN1CCOCCOCCN(CCCCCCCC)CCOCCOCC1
83.4

Another compound to check: CCCCCCCCCCCCN1CCOCCOCCN(CCCCCCCCCCCC)CCOCCOCC1
1.3

Another compound to check: CCCCCCCCCCCCC(=O)N1CCOCCOCCN(C(=O)CCCCCCCCCCCC)CCOCCOCC1 [C13 lariat ether amide]
11.8

Another compound to check: CCCCCCC(=O)N1CCOCCOCCN(C(=O)CCCCCC)CCOCCOCC1 [C7 lariat ether amide]
45.3

Please state, for each entry, its recorded Percent decrease 1° root.
1. CCCCCCCCCCN1CCOCCOCCN(CCCCCCCCCC)CCOCCOCC1
2. CCCCCCCCCCCCCCN1CCOCCOCCN(CCCCCCCCCCCCCC)CCOCCOCC1

91.4
0
